target: Estrogen receptor (Homo sapiens) + Estrogen receptor beta (Homo sapiens) (UniProt P03372+Q92731)
Sequence (P03372 whole entry, looked up, the tested form may be a part): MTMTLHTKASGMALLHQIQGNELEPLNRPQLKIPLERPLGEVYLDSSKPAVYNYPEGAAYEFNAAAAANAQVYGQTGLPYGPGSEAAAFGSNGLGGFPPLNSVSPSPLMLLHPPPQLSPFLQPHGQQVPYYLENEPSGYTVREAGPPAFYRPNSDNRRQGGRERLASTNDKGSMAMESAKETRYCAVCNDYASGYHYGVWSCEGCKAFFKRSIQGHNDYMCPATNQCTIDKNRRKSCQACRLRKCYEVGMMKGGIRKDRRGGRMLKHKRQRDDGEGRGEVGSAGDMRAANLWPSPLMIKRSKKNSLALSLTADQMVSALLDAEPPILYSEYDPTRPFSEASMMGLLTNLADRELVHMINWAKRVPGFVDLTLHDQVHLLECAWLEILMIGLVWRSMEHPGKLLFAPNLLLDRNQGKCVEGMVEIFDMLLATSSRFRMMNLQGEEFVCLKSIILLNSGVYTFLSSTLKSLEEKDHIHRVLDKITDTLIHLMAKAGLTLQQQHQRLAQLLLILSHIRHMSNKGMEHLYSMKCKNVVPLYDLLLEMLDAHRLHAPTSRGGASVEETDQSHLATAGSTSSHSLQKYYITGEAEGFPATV
Sequence (Q92731 whole entry, looked up, the tested form may be a part): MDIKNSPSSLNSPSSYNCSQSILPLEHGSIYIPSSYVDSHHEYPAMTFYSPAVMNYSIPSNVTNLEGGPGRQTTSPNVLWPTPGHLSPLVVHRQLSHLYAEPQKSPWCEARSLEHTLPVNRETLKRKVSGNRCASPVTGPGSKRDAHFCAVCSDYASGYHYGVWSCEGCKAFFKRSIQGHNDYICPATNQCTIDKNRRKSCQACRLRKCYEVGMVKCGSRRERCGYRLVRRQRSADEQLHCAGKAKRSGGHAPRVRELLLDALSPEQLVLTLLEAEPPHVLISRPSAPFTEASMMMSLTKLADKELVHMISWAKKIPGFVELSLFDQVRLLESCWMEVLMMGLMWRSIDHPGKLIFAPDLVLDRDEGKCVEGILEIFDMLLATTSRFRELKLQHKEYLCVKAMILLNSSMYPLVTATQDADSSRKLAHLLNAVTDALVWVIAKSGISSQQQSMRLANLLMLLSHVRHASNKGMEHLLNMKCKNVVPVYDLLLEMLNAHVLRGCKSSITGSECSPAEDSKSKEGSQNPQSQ
method.summary: OT_ER_ERaERb_1440: Odyssey Thera (OT) 24-hour HEK293T Protein-Complementation Assay for Estrogen Receptor-alpha/-beta Homodimer (AID 2283356);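 also: heteromer of ER alpha and ER beta binding domains; hits raise reporter fluorescence and both agonists and antagonists give an increase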
Records with an inconclusive call do not appear. Calls of active or inactive are those of the source. The calls were made as follows: active = hit-call score of the fitted dose curve at least 0.9, where 1 is the maximum; inconclusive = response in the unintended direction; inactive = score below 0.9.
The reply should be one of these categories: Yes = active, No = inactive

Just curious, what result did COC(=O)CC(=O)OC get here?
No

Could you kindly confirm the outcome this assay logged for CCC(C)(C)C(=O)O[C@H]1C[C@@H](C)C=C2C=C[C@H](C)[C@H](CC[C@@H]3C[C@@H](O)CC(=O)O3)[C@H]21 ?
No

Record lookup: outcome of this test for CC(C)=CCCC(C)=CC=O ?
No

Field: outcome | Entry: Cn1c(=O)cc(Oc2ccc(F)cc2F)c2cnc(NCC(C)(C)O)nc21
Yes

So what was the verdict on C=CC(=C)CCC=C(C)C in this test?
No

Values were extracted from PubChem BioAssay (EPA / NIEHS).
